These measurements were taken from PubChem BioAssay.

Assay: thallium flux modulation in parental HEK cells, confirmation, counter-screen for KCC2 modulator project, cell-based, counterscreen 1 (AID 1716)
Conditions: HEK293 parental cells, thallium flux FluoZin2, ouabain; at 10 µM; baseline-ratio fluorescence slope, 10–20 s after thallium
This is one part of the list. Inconclusive results are not listed. Calls of active or inactive are those of the source.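 The calls were made as follows: active = thallium flux rate significantly above the same plate's solvent-only control wells, beyond their mean plus 3 SD; inconclusive = the two replicate wells gave conflicting results; inactive = the rest.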
Outcomes: 1.0 = active, 0.0 = inactive

INSERT INTO results (molecule, label_class) VALUES
  ('Cc1ccc(-c2noc(CN3CCN(Cc4ccccc4)CC3)n2)cc1', 0.0),
  ('Cc1ccc(OCC(=O)NNC(=S)NCc2ccccc2)cc1', 1.0),
  ('CCC(C)Cn1c(O)cc2nn(-c3nc4ccccc4s3)c(=O)c-2c1C (stereo unspecified)', 1.0),
  ('O=C(CSc1nnc(-c2cccs2)n1Cc1ccccc1)N1CCc2ccccc2C1', 1.0),
  ('COC(=O)c1sccc1NC(=O)c1cc(OC)c(OC)c(OC)c1', 0.0),
  ('N#Cc1ccc(C(=O)Nc2nc(-c3cccs3)c(C(=O)C(F)(F)F)s2)cc1', 0.0),
  ('C/C(=C\C(=O)c1ccc(Br)cc1)N1CCCCC1', 1.0),
  ('COc1ccc(-c2cn(-c3ccc(OC)cc3)c(=S)[nH]2)cc1', 1.0),
  ('CCOc1ccc(C(=O)NCCCN2CCCC2=O)cc1', 0.0),
  ('Cc1oc(C(N)=O)cc1COc1ccc(C(N)=O)cc1', 0.0),
  ('Cc1ccccc1-c1n[nH]c(=S)n1/N=C/c1ccc(-c2ccccc2Br)o1', 1.0);
